measurement.protocol: Pharmacokinetic evaluation in plasma after IV and PO administration
Format: in vivo
condition.info: mouse, female Balb/c mice, PO 10 mg/kg, read-out: MRT0-inf
Protocol: Experimental Embodiment 3: Pharmacokinetic Evaluation […] Female Balb/c mice of 18 to 20 grams were selected, and the solution of the test compound was orally administered at a dose of 2 or 10 mg/kg. […] The drug concentration was analyzed by LC-MS/MS, and the pharmacokinetic parameters were calculated using Phoenix WinNonlin software (Pharsight Corporation, USA).
outcome.measure: MRT inf (h)

[[record]]
molecule = "CNC(=O)c1cccc(-c2ccc3c(N4CCOC[C@@H]4C)nc(N4CCOC5(CC5)C4)nc3n2)c1"
observed = 2.74

[[record]]
molecule = "CNC(=O)c1cccc(-c2ccc3c(N4CCOC[C@@H]4C)nc(N4CCOC5(CCC5)C4)nc3n2)c1"
observed = 2.49

[[record]]
molecule = "C[C@H]1COCCN1c1nc(N2CCOC3(CC3)C2)nc2nc(-c3cccc(C(N)=O)c3)ccc12"
observed = 3.04

[[record]]
molecule = "CNC(=O)c1cccc(-c2ccc3c(N4CCOC[C@@H]4C)nc(N4CCOC[C@@H]4C)nc3n2)c1 [AZD2014, reference compound]"
observed = 2.5

